Overview of reported self-cleavage kobs at 10000 uM GlcN6P across a group of variants:
B1: glmS ribozyme (parent)
chain: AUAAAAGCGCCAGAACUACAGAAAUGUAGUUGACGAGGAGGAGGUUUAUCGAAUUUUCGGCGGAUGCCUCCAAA

- Variants of: B1
- test-summary: self-cleavage kobs at 10000 uM GlcN6P; higher = faster cleavage; RNA array
- condition-info: with glucosamine-6-phosphate
Fewer inactive variants are shown than the library holds.
Just the number in s⁻¹, nothing appended.

Answered examples (4):
1. U31G U55G U69G :: 6.94e-05
2. C16U G40U G66U :: 4.28e-05
3. A53U U54G C71A :: 0.00478
4. U47C A53G :: 0.00419

Could you now consider this next variant?
According to the records, this variant A6U C50G A52U C61G C68U displays self-cleavage kobs at 10000 uM GlcN6P of 4.51e-05
